# EXPERIMENTAL SYSTEM: T1, recombinant human interleukin-4 (human, UniProt P05112 25-153)
# T1 construct: Recombinant human IL-4 applied in solution over antibody captured by anti-human IgG (BIAcore); also called rhIL-4; human IL-4
# T1 sequence (looked up): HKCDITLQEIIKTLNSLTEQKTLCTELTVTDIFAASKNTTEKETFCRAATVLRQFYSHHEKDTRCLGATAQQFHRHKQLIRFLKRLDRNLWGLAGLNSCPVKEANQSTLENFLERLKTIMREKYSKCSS
# PROTOCOL TEXT: SPR (BIAcore 2000), mAb captured on anti-human IgG CM-5 chip, rhIL-4 as analyte
pKd: −log10 of the molar value.
pKd listing for selected binders.
MEASURED PROPERTY: pKd

1. Example 2 antibody comprising SEQ ID NO:9 and SEQ ID NO:10 (antibody, human IgG1, V domains shown, also called Ex. 2) VH: QVQLVESGGGVVQPGRSLRLSCAASGFTLSSFGMHWVRQAPGKGLEWVAVIWYDGSNEYYADSVKGRFTTSRDNSKNTLYLQMNSLRAEDTAVYYCAREGSWSPDIFDIWGQGTMVTVSS VL: AIQLTQSPSSLSASVGDRVTITCRTSQGIRSALAWYQQNPGKAPKLLIYDASSLESGVPSRFSGSGSGTDFTLTISSLQPEDFATYYCQQFNSYPVTFGQGTRLEIKR	10.23
2. Example 5 antibody comprising SEQ ID NO:33 and SEQ ID NO:34 (antibody, human IgG1, V domains shown, also called Ex. 5) VH: QVQLVESGGGVVQPGRSLRLSCAASGFTFSCCGMHWVRQAPGKGLEWVAVIWYDGSNKYYADSVKGRFTISRDTSKNTLYLQMNSLRAEDTAVYYCATDSSGSFYEYFQHWGQGTLVTVSS VL: AIQLTQSPSSLSASVGDRVTITCRASQGINSALAWYQQKPGKAPKLLIYDASSLESGVPSRFSGSGSGTDFTLTISSLQPEDFATYYCQQFNSYPYTFGQGTKLEIKR	10.08
3. Example 4 antibody comprising SEQ ID NO:25 and SEQ ID NO:26 (antibody, human IgG1, V domains shown, also called Ex. 4) VH: QVQLVQSGAEVKKPGSSVKVSCKASGDTFSSYAISWVRQAPGQGFEWMGGIIPVIGTVNYEERFQDRVTITADNSTSTAYMELTSLRSEDTAVYFCGREEGFLDYWGQGTLVTVSS VL: AIQLTQSPSSLSASVGDRVTITCRASQGISSALAWYQQKPGKAPKLLIYDASSLESGVPSRFSGSGSGTDFTLTISSLQPEDFATYYCQQFNSYPLLTFGGGTKVEIKR	10.18
